# Method: Inhibition of neuraminidase activity of human parainfluenza virus 1 C35 hemagglutinin-neuraminidase pre-incubated for 20 mins before MUN substrate by methylumbelliferone release based fluorescence assay

Compound	IC50
CC(O)C(=O)N[C@H]1[C@H]([C@H](O)[C@H](O)CO)OC(C(=O)O)=C[C@@H]1N=[N+]=[N-] (stereo not given in full)	68.1 µM
CC(C)C(=O)N[C@H]1[C@H]([C@H](O)[C@H](O)CO)OC(C(=O)O)=C[C@@H]1N	261 µM
[N-]=[N+]=N[C@H]1C=C(C(=O)O)O[C@@H]([C@H](O)[C@H](O)CO)[C@@H]1NC(=O)C1CCC1	1.92 µM
CC(=O)N[C@H]1[C@H]([C@H](O)[C@H](O)CO)OC(C(=O)O)=C[C@@H]1N	> 1000 µM
CC(=O)N[C@H]1[C@H]([C@H](O)[C@H](O)CO)OC(C(=O)O)=C[C@@H]1N=[N+]=[N-]	3.92 µM

----------
# key: entry, value: pIC50
# Method: Inhibition of neuraminidase activity of human parainfluenza virus 1 C35 hemagglutinin-neuraminidase pre-incubated for 20 mins before MUN substrate by methylumbelliferone release based fluorescence assay
pIC50: −log10 of the molar value.

Compound	Relational operator	pIC50
C/C=C(\C)C(=O)N[C@H]1[C@H]([C@H](O)[C@H](O)CO)OC(C(=O)O)=C[C@@H]1N=[N+]=[N-]	=	5.11
CC(C)C(=O)N[C@H]1[C@H]([C@H](O)[C@H](O)CO)OC(C(=O)O)=C[C@@H]1N=[N+]=[N-]	=	6.30
CC(=O)N[C@H]1[C@H]([C@H](O)[C@H](O)CO)OC(C(=O)O)=C[C@@H]1O	=	4.20
CC(C)C(=O)N[C@H]1[C@H]([C@H](O)[C@H](O)CO)OC(C(=O)O)=C[C@@H]1NC(=N)N	<	3.00
[N-]=[N+]=N[C@H]1C=C(C(=O)O)O[C@@H]([C@H](O)[C@H](O)CO)[C@@H]1NC(=O)C1CC1	=	6.04
CCC(C)C(=O)N[C@H]1[C@H]([C@H](O)[C@H](O)CO)OC(C(=O)O)=C[C@@H]1N=[N+]=[N-] (stereo partly drawn)	=	5.80
CC(C)C(=O)N[C@H]1[C@H]([C@H](O)[C@H](O)CO)OC(C(=O)O)=C[C@@H]1O	=	5.42
CC(CO)C(=O)N[C@H]1[C@H]([C@H](O)[C@H](O)CO)OC(C(=O)O)=C[C@@H]1N=[N+]=[N-] (stereo partly drawn)	=	5.02
